Tested on: hTERT-HMEC
Assay: percentage of EdU-negative (G0-arrested) nuclei per well, 72 h; higher = more G0 arrest;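 further: secreted proteins added to cultured cells, EdU pulse at the end, nuclei found by Hoechst imaging, EdU status from nuclear versus surrounding ring intensity ratio, PBS as neutral control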
Settings: protein concentration 0.0225 µM; reference: sequence is the full UniProt precursor, the tested protein was the secreted form or ectodomain
percentage of EdU-negative overview
Respond numerically; units are % and should not be typed.

MWQLLLPTALLLLVSAGMRTEDLPKAVVFLEPQWYSVLEKDSVTLKCQGAYSPEDNSTQWFHNENLISSQASSYFIDAATVNDSGEYRCQTNLSTLSDPVQLEVHIGWLLLQAPRWVFKEEDPIHLRCHSWKNTALHKVTYLQNGKDRKYFHHNSDFHIPKATLKDSGSYFCRGLVGSKNVSSETVNITITQGLAVSTISSFSPPGYQVSFCLVMVLLFAVDTGLYFSVKTNI: 4.18

Challenge: Recorded percentage of EdU-negative for MLLLVTSLLLCELPHPAFLLIPEKSDLRTVAPASSLNVRFDSRTMNLSWDCQENTTFSKCFLTDKKNRVVEPRLSNNECSCTFREICLHEGVTFEVHVNTSQRGFQQKLLYPNSGREGTAAQNFSCFIYNADLMNCTWARGPTAPRDVQYFLYIRNSKRRREIRCPYYIQDSGTHVGCHLDNLSGLTSRNYFLVNGTSREIGIQFFDSLLDTKKIERFNPPSNVTVRCNTTHCLVRWKQPRTYQKLSYLDFQYQLDVHRKNTQPGTENLLINVSGDLENRYNFPSSEPRAKHSVKIRAADVRILNWSSWSEAIEFGSDDGNLGSVYIYVLLIVGTLVCGIVLGFLFKRFLRIQRLFPPVPQIKDKLNDNHEVEDEIIWEEFTPEEGKGYREEVLTVKEIT , please?
Response given: 5.11

Challenge: What about MFHVSFRYIFGLPPLILVLLPVASSDCDIEGKDGKQYESVLMVSIDQLLDSMKEIGSNCLNNEFNFFKRHICDANKEGMFLFRAARKLRQFLKMNSTGDFDLHLLKVSEGTTILLNCTGQVKGRKPAALGEAQPTKSLEENKSLKEQKKLNDLCFLKRLLQEIKTCWNKILMGTKEH ?
Response given: 5.22

Challenge: Try this sequence next: MSEEVTYADLQFQNSSEMEKIPEIGKFGEKAPPAPSHVWRPAALFLTLLCLLLLIGLGVLASMFHVTLKIEMKKMNKLQNISEELQRNISLQLMSNMNISNKIRNLSTTLQTIATKLCRELYSKEQEHKCKPCPRRWIWHKDSCYFLSDDVQTWQESKMACAAQNASLLKINNKNALEFIKSQSRSYDYWLGLSPEEDSTRGMRVDNIINSSAWVIRNAPDLNNMYCGYINRLYVQYYHCTYKKRMICEKMANPVQLGSTYFREA [Q5QGZ9]
Response given: 4.07

Challenge: Proceed to MPMFIVNTNVPRASVPDGFLSELTQQLAQATGKPPQYIAVHVVPDQLMAFGGSSEPCALCSLHSIGKIGGAQNRSYSKLLCGLLAERLRISPDRVYINYYDMNAANVGWNNSTFA
Response given: 4.84

Challenge: Would you mind doing MSSENCFVAENSSLHPESGQENDATSPHFSTRHEGSFQVPVLCAVMNVVFITILIIALIALSVGQYNCPGQYTFSMPSDSHVSSCSEDWVGYQRKCYFISTVKRSWTSAQNACSEHGATLAVIDSEKDMNFLKRYAGREEHWVGLKKEPGHPWKWSNGKEFNNWFNVTGSDKCVFLKNTEVSSMECEKNLYWICNKPYK as well?
Response given: 5.44

Challenge: MLALLCSCLLLAAGASDAWTGEDSAEPNSDSAEWIRDMYAKVTEIWQEVMQRRDDDGALHAACQVQPSATLDAAQPRVTGVVLFRQLAPRAKLDAFFALEGFPTEPNSSSRAIHVHQFGDLSQGCESTGPHYNPLAVPHPQHPGDFGNFAVRDGSLWRYRAGLAASLAGPHSIVGRAVVVHAGEDDLGRGGNQASVENGNAGRRLACCVVGVCGPGLWERQAREHSERKKRRRESECKAA ?
Response given: 7

Challenge: How about MGSGPRGALSLLLLLLAPPSRPAAGCPAPCSCAGTLVDCGRRGLTWASLPTAFPVDTTELVLTGNNLTALPPGLLDALPALRTAHLGANPWRCDCRLVPLRAWLAGRPERAPYRDLRCVAPPALRGRLLPYLAEDELRAACAPGPLCWGALAAQLALLGLGLLHALLLVLLLCRLRRLRARARARAAARLSLTDPLVAERAGTDES ?
Response given: 5.41

Challenge: Thanks! And MAAALFVLLGFALLGTHGASGAAGFVQAPLSQQRWVGGSVELHCEAVGSPVPEIQWWFEGQGPNDTCSQLWDGARLDRVHIHATYHQHAASTISIDTLVEEDTGTYECRASNDPDRNHLTRAPRVKWVRAQAVVLVLEPGTVFTTVEDLGSKILLTCSLNDSATEVTGHRWLKGGVVLKEDALPGQKTEFKVDSDDQWGEYSCVFLPEPMGTANIQLHGPPRVKAVKSSEHINEGETAMLVCKSESVPPVTDWAWYKITDSEDKALMNGSESRFFVSSSQGRSELHIENLNMEADPGQYRCNGTSSKGSDQAIITLRVRSHLAALWPFLGIVAEVLVLVTIIFIYEKRRKPEDVLDDDDAGSAPLKSSGQHQNDKGKNVRQRNSS ?
Response given: 5.59

Challenge: Another sequence: MQPRRQRLPAPWSGPRGPRPTAPLLALLLLLAPVAAPAGSGDPDDPGQPQDAGVPRRLLQQAARAALHFFNFRSGSPSALRVLAEVQEGRAWINPKEGCKVHVVFSTERYNPESLLQEGEGRLGKCSARVFFKNQKPRPTINVTCTRLIEKKKRQQEDYLLYKQMKQLKNPLEIVSIPDNHGHIDPSLRLIWDLAFLGSSYVMWEMTTQVSHYYLAQLTSVRQWKTNDDTIDFDYTVLLHELSTQEIIPCRIHLVWYPGKPLKVKYHCQELQTPEEASGTEEGSAVVPTELSNF
Response given: 5.08

Challenge: Here is the next sequence: MKPVLPLQFLVVFCLALQLVPGSPKQRVLKYILEPPPCISAPENCTHLCTMQEDCEKGFQCCSSFCGIVCSSETFQKRNRIKHKGSEVIMPAN [Q8IUB5]
Response given: 4.99

Challenge: Repeat with MAILMLSLQLILLLIPSISHEAHKTSLSSWKHDQDWANVSNMTFSNGKLRVKGIYYRNADICSRHRVTSAGLTLQDLQLWCNLRSVARGQIPSTL [Q6UY13]
Response given: 4.87

====

System: MCF7
Experiment: percentage of EdU-negative (G0-arrested) nuclei per well, 72 h; higher = more G0 arrest
Conditions: protein concentration 0.225 µM; reference: sequence is the full UniProt precursor, the tested protein was the secreted form or ectodomain
endpointName: percentage of EdU-negative (%)
Only the number, expressed in %, is required.

These solved cases illustrate the format of a correct answer.
MWLLLTLSFLLASTAAQDGDKLLEGDECAPHSQPWQVALYERGRFNCGASLISPHWVLSAAHCQSRFMRVRLGEHNLRKRDGPEQLRTTSRVIPHPRYEARSHRNDIMLLRLVQPARLNPQVRPAVLPTRCPHPGEACVVSGWGLVSHNEPGTAGSPRSQVSLPDTLHCANISIISDTSCDKSYPGRLTNTMVCAGAEGRGAESCEGDSGGPLVCGGILQGIVSWGDVPCDNTTKPGVYTKVCHYLEWIRETMKRN [Q9H2R5]: 25.8
MRNSYRFLASSLSVVVSLLLIPEDVCEKIIGGNEVTPHSRPYMVLLSLDRKTICAGALIAKDWVLTAAHCNLNKRSQVILGAHSITREEPTKQIMLVKKEFPYPCYDPATREGDLKLLQLMEKAKINKYVTILHLPKKGDDVKPGTMCQVAGWGRTHNSASWSDTLREVNITIIDRKVCNDRNHYNFNPVIGMNMVCAGSLRGGRDSCNGDSGSPLLCEGVFRGVTSFGLENKCGDPRGPGVYILLSKKHLNWIIMTIKGAV: 30.8

Challenge: Consider the sequence shown here: MKGILVAGITAVLVAAVESLSCVQCNSWEKSCVNSIASECPSHANTSCISSSASSSLETPVRLYQNMFCSAENCSEETHITAFTVHVSAEEHFHFVSQCCQGKECSNTSDALDPPLKNVSSNAECPACYESNGTSCHGKPWKCYEEEQCVFLVAELKNDIESKSLVLKGCSNVSNATCQFLSGENKTLGGVIFRKFECANVNSLTPTSAPTTSHNVGSKASLYLLALASLLLRGLLP [Q6UX82] What is its recorded percentage of EdU-negative?
Response given: 24

====

Listing of entries alongside the reported percentage of EdU-negative.
Tested on: MCF7
Experiment: percentage of EdU-negative (G0-arrested) nuclei per well, 72 h; higher = more G0 arrest
Settings: protein concentration 0.0225 µM; reference: sequence is the full UniProt precursor, the tested protein was the secreted form or ectodomain
Write down the numeric answer in % and omit the unit.

MAASRWARKAVVLLCASDLLLLLLLLPPPGSCAAEGSPGTPDESTPPPRKKKKDIRDYNDADMARLLEQWEKDDDIEEGDLPEHKRPSAPVDFSKIDPSKPESILKMTKKGKTLMMFVTVSGSPTEKETEEITSLWQGSLFNANYDVQRFIVGSDRAIFMLRDGSYAWEIKDFLVGQDRCADVTLEGQVYPGKGGGSKEKNKTKQDKGKKKKEGDLKSRSSKEENRAGNKREDL: 27.3
MEIVWEVLFLLQANFIVCISAQQNSPKIHEGWWAYKEVVQGSFVPVPSFWGLVNSAWNLCSVGKRQSPVNIETSHMIFDPFLTPLRINTGGRKVSGTMYNTGRHVSLRLDKEHLVNISGGPMTYSHRLEEIRLHFGSEDSQGSEHLLNGQAFSGEVQLIHYNHELYTNVTEAAKSPNGLVVVSIFIKVSDSSNPFLNRMLNRDTITRITYKNDAYLLQGLNIEELYPETSSFITYDGSMTIPPCYETASWIIMNKPVYITRMQMHSLRLLSQNQPSQIFLSMSDNFRPVQPLNNRCIRTNINFSLQGKDCPNNRAQKLQYRVNEWLLK [Q9NS85]: 25.5

Next up:
Challenge: Record lookup: for MCF7, what percentage of EdU-negative belongs to MSRREGSLEDPQTDSSVSLLPHLEAKIRQTHSLAHLLTKYAEQLLQEYVQLQGDPFGLPSFSPPRLPVAGLSAPAPSHAGLPVHERLRLDAAALAALPPLLDAVCRRQAELNPRAPRLLRRLEDAARQARALGAAVEALLAALGAANRGPRAEPPAATASAASATGVFPAKVLGLRVCGLYREWLSRTEGDLGQLLPGGSA ?
Response given: 25.7

The reported measurements were obtained from the supplement of paper PMC11316812.
